Assay: Cy5 fluorescence interference with SSB-bound oligo, artefact control for HCV NS3 helicase inhibitor project, biochemical, NIH Clinical Collection, E. coli SSB (AID 743268)
Please provide measured fluorescence ratio for the entries that follow.
One number for each entry.

Report fluorescence ratio for every entry below.
1. Cc1onc(-c2c(Cl)cccc2Cl)c1C(=O)N[C@@H]1C(=O)N2[C@@H]1SC(C)(C)[C@@H]2C(=O)O
2. CCCCC1=NC2(CCCC2)C(=O)N1Cc1ccc(-c2ccccc2-c2nn[nH]n2)cc1
3. OCCN1CCN(CCCN2c3ccccc3Sc3ccc(Cl)cc32)CC1
4. NC(=O)c1cnccn1

[0.97, 1.06, 1.01, 0.1]

Reported fluorescence ratio of O=C1[C@H](CC[C@H](O)c2ccc(F)cc2)[C@@H](c2ccc(O)cc2)N1c1ccc(F)cc1 : 0.97
